pIC50: −log10 of the molar value.
For UniProt:P49841, measured pIC50 is reported for the entries below.
Sequence (P49841 whole entry): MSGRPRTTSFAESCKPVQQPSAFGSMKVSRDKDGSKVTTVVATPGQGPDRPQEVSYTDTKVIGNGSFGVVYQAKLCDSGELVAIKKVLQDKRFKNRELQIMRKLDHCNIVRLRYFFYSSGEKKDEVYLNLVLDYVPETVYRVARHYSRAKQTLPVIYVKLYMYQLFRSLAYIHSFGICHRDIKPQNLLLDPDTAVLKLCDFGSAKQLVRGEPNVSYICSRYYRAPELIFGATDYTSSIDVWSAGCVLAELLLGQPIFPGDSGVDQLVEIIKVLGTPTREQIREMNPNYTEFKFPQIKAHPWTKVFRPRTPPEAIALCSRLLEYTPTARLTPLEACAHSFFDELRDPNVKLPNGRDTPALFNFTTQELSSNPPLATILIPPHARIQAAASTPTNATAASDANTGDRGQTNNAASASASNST

{"columns": ["Molecule", "pIC50"],
 "data": [
  ["CC[C@]1(c2cccc(S(C)(=O)=O)c2)C2=CN=NC2NC2=C1C(=O)NC(C)(C)C2 (some centres not stated) [US20250313563, Compound 945621]", "< 5.30"],
  ["CC1(C)CC(=O)C2=C(C1)NC1=C(CN=N1)C21CCN(S(=O)(=O)c2cccc3c2CCCC3)CC1 [US20250313563, Compound 947470]", "> 7.00"],
  ["CCC1(c2cccc(-c3cnn4c3CCCC4)c2)C2=C(CC(C)(C)NC2=O)NC2N=NC(C)=C21 (configuration not stated) [US20250313563, Compound 945993]", "6.00 to 7.00"],
  ["CCC1(c2cccc(N3CCc4cnccc4C3)c2)C2=CN=NC2NC2=C1C(=O)CC(C)(C)C2 (configuration not stated) [US20250313563, Compound 929449]", "5.30 to 6.00"],
  ["CCC1(c2cccc(-c3ccnc(CO)c3)c2)C2=CN=NC2NC2=C1C(=O)CC(C)(C)C2 (configuration not stated) [US20250313563, Compound 943540]", "6.00 to 7.00"],
  ["CC1(C)CC(=O)C2=C(C1)NC1N=NC=C1[C@]21CCCc2c(-c3ccncc3)cccc21 (some centres not stated) [US20250313563, Compound 945548]", "> 7.00"],
  ["COc1ccc(S(=O)(=O)N2CCCC3(CC2)C2=CN=NC2NC2=C3C(=O)CC(C)(C)C2)cc1 (configuration not stated) [US20250313563, Compound 917141]", "6.00 to 7.00"]
]}
